target: rhodesain (Trypanosoma brucei rhodesiense, UniProt Q95PM0); experiment: Fluorometric inhibition assay, rhodesain; format: biochemical; conditions: Ki, Rhodesain
Sequence (Q95PM0 entry or part of it): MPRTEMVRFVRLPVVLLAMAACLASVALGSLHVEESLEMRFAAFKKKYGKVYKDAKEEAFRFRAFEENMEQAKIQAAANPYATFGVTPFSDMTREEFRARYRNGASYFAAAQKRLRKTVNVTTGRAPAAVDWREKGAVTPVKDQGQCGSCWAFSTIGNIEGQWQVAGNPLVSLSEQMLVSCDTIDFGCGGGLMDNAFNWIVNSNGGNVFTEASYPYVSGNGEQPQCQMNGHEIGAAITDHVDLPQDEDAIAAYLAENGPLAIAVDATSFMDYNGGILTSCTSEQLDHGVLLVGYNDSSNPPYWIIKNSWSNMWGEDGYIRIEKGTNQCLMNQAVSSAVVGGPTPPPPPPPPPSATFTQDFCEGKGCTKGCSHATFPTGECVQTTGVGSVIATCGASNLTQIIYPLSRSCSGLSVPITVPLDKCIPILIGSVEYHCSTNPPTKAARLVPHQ

{"molecule": "CC(C)CC(C#N)NC(=O)C(Cc1ccccc1)NC(=O)c1cnccn1 (stereo not drawn) [compound 74]", "units_of_measure": "nM", "Ki": 560}
{"molecule": "CC(C)C[C@@H](C=C[N+](=O)[O-])NC(=O)[C@H](Cc1ccccc1)NC(=O)c1cnccn1 [compound 59]", "units_of_measure": "nM", "Ki": 2}
{"molecule": "O=C(NC(COCc1ccccc1)C(=O)c1nc2ccccc2s1)C(CC1CCCCC1)NC(=O)N1CCOCC1 (stereo not drawn) [compound 42]", "units_of_measure": "nM", "Ki": 324}
